Below, each of the molecules is paired with its reported nuclei count value.
# experimentSummary: reduction of polyQ htt aggregates in cells – imaging, exon1htt(103Q)mCFP cells, high-content imaging, primary screen (AID 483);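 further: compound exposure lasted 3 days before fixation; percent of the per-plate median nuclei count of sample wells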
# experimentalSetup: exon1htt(103Q)mCFP cell line, aggregate imaging, at 2 µM; measured here: cell count, toxicity
Answer in %, number only, no unit symbol.

Some molecules with recorded nuclei count:
CN1CCc2nc(SCC(=O)Nc3ccc(F)cc3)c(C#N)cc2C1    101
COc1ccc(-c2nnc(SCC#N)o2)cc1    86
Cn1c(=O)c2c(-c3ccncc3)c3c(nc2n(C)c1=O)-c1ccccc1C3=O    98.9

// query nuclei count value for entry CCC1CCCCN1S(=O)(=O)c1ccc(C(=O)Nc2nnc(-c3ccccc3Cl)o2)cc1 (stereo not given)
107

And for "CCCSc1nnc2nc3c(nn12)c1ccccc1n3C" ?
109

And for CC(=O)Oc1ccc(CCC(C)OC(C)=O)cc1 (stereo not given) ?
100

And for "COc1ccc(CC(=O)OCn2nnc3ccccc3c2=O)cc1" ?
120

And for CCSc1nnc(N2C(=O)CC(c3ccsc3)C3=C2CC(C)(C)CC3=O)s1 (stereo not given) ?
109

And for "CCOC(=O)Nc1ccc2c(c1)N(C(=O)CCN1CCOCC1)c1ccccc1S2" ?
100

And for "N#Cc1c(/N=C/c2ccco2)sc2c1CCC2" ?
105

And for "O=C(CCC(=O)OCC(=O)c1ccccc1)NC1CCCCC1" ?
95

And for "CCCOC(=O)/C(C(N)=NCc1ccccc1)=C(\O)OCCC" ?
110

And for "CCOc1ccccc1-n1nnnc1SCC(=O)Nc1cc2oc3ccccc3c2cc1OC" ?
99.1

And for "CCSC1=NCN(CCCC(=O)O)CN1" ?
106

And for "Cc1cccc2cc(CN(Cc3nnnn3Cc3ccccc3)C3CCCC3)c(=O)[nH]c12" ?
76.4
